Test: Cytotoxicity against human HG23 cells after 72 hrs by crystal violet staining-based assay
Assay type: cell-based
MEASURED_ENDPOINT: CC50 at 72 h

Supply measured CC50 at 72 h of CC(C)C[C@@H](C(=O)N[C@H](C=O)C[C@@H]1CCNC1=O)N1CC(COCc2cccc(Cl)c2)OC1=O (mixture of isomers) in your reply.
> 100 µM

====

Assay: Inhibition of Norovirus 3CL protease using Edans-DFHLQ/GP-Dabcyl as substrate preincubated for 30 mins followed by substrate addition measured for 1 hr by FRET assay
MEASURED_ENDPOINT: pIC50
Here pIC50 is given on a logarithmic scale as minus log10 of the concentration in mol/L.

As a guide, the following entries are already answered.
CC(C)C[C@@H](C(=O)N[C@H](C=O)C[C@@H]1CCNC1=O)N1CC(COCc2cccc(Cl)c2)OC1=O (mixture of isomers): 5.09
CC(C)C[C@@H](C(=O)N[C@H](C=O)C[C@@H]1CCNC1=O)N1CC(Cc2cccc(Cl)c2)OC1=O (stereo in doubt; 8A): 5.14

Proceed to the following item.
Supply measured pIC50 of O=C[C@H](C[C@@H]1CCNC1=O)NC(=O)[C@H](CC1CCCCC1)N1CC(Cc2cccc(Cl)c2)OC1=O (mixture of isomers) in your reply.
4.87
